Kindly supply the reported IC50 values for the records listed here.
System: UniProt Q6ZQW0
Sequence (Q6ZQW0 whole entry, the tested form may be a part): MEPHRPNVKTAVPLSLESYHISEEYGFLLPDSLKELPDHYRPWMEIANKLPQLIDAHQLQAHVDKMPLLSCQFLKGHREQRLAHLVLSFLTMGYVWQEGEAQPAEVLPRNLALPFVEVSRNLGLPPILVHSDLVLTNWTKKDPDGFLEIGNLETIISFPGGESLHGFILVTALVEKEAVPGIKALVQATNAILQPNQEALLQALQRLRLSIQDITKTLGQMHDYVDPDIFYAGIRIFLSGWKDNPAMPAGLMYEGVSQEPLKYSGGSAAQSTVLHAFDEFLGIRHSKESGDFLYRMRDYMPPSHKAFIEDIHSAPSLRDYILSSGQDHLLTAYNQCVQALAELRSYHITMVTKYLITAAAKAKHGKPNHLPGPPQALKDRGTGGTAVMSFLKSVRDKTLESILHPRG
Method Summary: Inhibition of C-terminal His6-tagged human IDO2 (14 to 420 residues) expressed in Escherichia coli BL21 (DE3) assessed as reduction in conversion of L-tryptophan to N-formyl kynurenine using L-tryptophan as substrate after 30 mins by methylene blue dye based microplate reader analysis
Numbers only, in µM.

Record Smiles: O=C1c2cc(F)ccc2-n2c1nc1ccc(N3CCOCC3)cc1c2=O
IC50 [µM]: 79.9

Respectfully, I request IC50 for each entry included below.
1. CN(C)c1ccc2nc3n(c(=O)c2c1)-c1ccc(F)cc1C3=O
2. O=C1c2cc(F)ccc2-n2c1nc1ccc(N3CCNCC3)cc1c2=O
3. CN1CCN(c2ccc3nc4n(c(=O)c3c2)-c2ccccc2C4=O)CC1
4. NS(=O)(=O)NCCNc1nonc1C(=NO)Nc1ccc(F)c(Br)c1

1: 91.3; 2: 41.6; 3: 82.6; 4: 10.3

Respectfully, I request IC50 for each entry included below.
1. O=C1c2cc(F)ccc2-n2c1nc1ccc(N3CCCCC3)cc1c2=O
2. CN1CCN(c2ccc3nc4n(c(=O)c3c2)-c2ccc(F)cc2C4=O)CC1

[40.1, 46.8]

Sourced from ChEMBL document CHEMBL4354812
